The measured values listed here are drawn from patent EP1021178B1.

Tested on: BT-549
Assay: NCI human tumor cell panel
Assay type: cell-based
Settings: BT-549, read-out: Log10 LC50 (converted)
Observable: CC50

OCc1ccc(-c2ccc(-c3ccc(CO)[se]3)s2)[se]1 = > 100 µM
O=Cc1ccc(-c2ccc(-c3cccs3)[se]2)s1 = > 100 µM
O=Cc1ccc(-c2ccc(-c3ccc(C=O)[se]3)s2)[se]1 = > 100 µM
OCc1ccc(-c2ccc(-c3ccc[se]3)s2)[se]1 = 87.1 µM
OCc1ccc(-c2ccc(-c3ccc(CO)s3)[se]2)s1 = > 100 µM
O=Cc1ccc(-c2ccc(-c3ccc(C=O)[se]3)s2)s1 = > 100 µM
